- Test system: SF-539 CNS
- MEASUREMENT PROTOCOL: NCI-60 one-dose screen, 48 h
- CONDITION SET: 10 µM unless noted
Compounds without any hit were thinned out: in the full panel of roughly 83,000, 20% have a hit. The source made the active and inactive calls. How the source made its calls: active means growth percent below 10; inactive means the rest.
Classes used: t (active), f (inactive)

1. CC(=O)Nc1ccc(-n2cnc3cc(-c4ccc(O)cc4)ccc32)cc1C(F)(F)F    f
2. CN(C)CCCNC(=O)c1cc(NC(=O)c2cc(NC(=O)c3ccc(/C=C/c4ccccc4)cc3)cn2C)cn1C    f
3. C=C1CC[C@@H]2[C@]3(C)COC(c4cn[nH]c4-c4ccccc4)O[C@@H]3CC[C@@]2(C)[C@@H]1C/C=C1/C(=O)OCC1O (some centres not stated)    t
4. N#Cc1c(-c2ccc(Cl)cc2)nc2n[nH]c(-c3ccc(Cl)cc3)c2c1-c1ccc(C(F)(F)F)cc1    t
5. C=CC(=O)Nc1ccc(C)c(Oc2ccc(Cl)cc2)c1    f
6. O=C(Cn1c(/C=C/c2ccccc2)nc2ccccc2c1=O)Nc1ccc(Cl)cc1    f
7. Cc1cc(C)n(-c2ccc3nnc(-c4ccccc4)n3n2)n1    f
8. COc1cc(/C=C/C(=O)c2ccccc2)ccc1Oc1nc(Nc2ccc(F)cc2)nc(N(C)C)n1    t
9. COc1c(F)ccc(C(=O)Nc2ccc3nc(NC(=O)C4CCCN(S(=O)(=O)c5ccc(C#N)cc5)C4)sc3c2)c1F (configuration not stated)    f
10. COc1ccc(NC(=O)Cn2c(/C=C/c3cccc([N+](=O)[O-])c3)nc3ccccc3c2=O)cc1    t
11. Cc1cc2nc3c4ccccc4n(CC4=NCCN4)c3nc2cc1C    t
12. CCN(CC)c1ccc(/C=N/Nc2nc(-c3ccc(C)cc3)cs2)c(O)c1    f
13. COc1cc(-c2ccc(/C=N/NC(=O)c3[nH]c4ccc(Br)cc4c3-c3ccccc3)s2)cc(OC)c1OC    t
14. C=C1CC[C@@H]2[C@]3(C)COC(c4ccccc4)O[C@@H]3CC[C@@]2(C)[C@@H]1C/C=C1/C(=O)OCC1OC(C)=O (some centres not stated)    t
15. CC12CC[C@@H]3[C@]4(C)COC(c5cn[nH]c5-c5ccc(Br)cc5)O[C@@H]4CC[C@@]3(C)[C@@H]1CC(C1=CCOC1=O)O2 (some centres not stated)    f
16. N#Cc1c(-c2cccc(Cl)c2Cl)cc(-c2c[nH]c3ccccc23)[nH]c1=O    f
17. C/C(=N\N=C1/C(=O)Nc2ccccc21)c1ccc2c(c1)Nc1ccccc1S2    f
18. S=c1c2ccccc2nc2n1CCc1c-2[nH]c2ccccc12    f
19. CCCn1cc(-c2nc(Nc3ccc(C(=O)NCCCCNc4cccc5c4C(=O)N(C4CCC(=O)NC4=O)C5=O)cc3)nc3[nH]ccc23)cn1 (configuration not stated)    f
20. COc1ccc(NC(=O)c2sc3nc(C(C)C)ccc3c2N)cc1    f
21. Cc1ccc([C@H]2C(C(=O)c3ccc(Cl)cc3)C3(N[C@@H]2c2ccccc2)C(=O)Nc2ccccc23)cc1 (some centres not stated)    f
22. Cn1cc(-c2cc(N)n3nc(-c4cn(C)c5ccccc45)cc3n2)c2cc(Cl)ccc21    t
23. Nc1cccc(SCc2cc3ccccc3[nH]c2=O)c1    f
24. COc1cc(C2CC(c3cc(OC)c(OC)c(OC)c3)=Nc3c(N)nc(N)nc3N2)ccc1Oc1nc(NCCO)nc(N2CCOCC2)n1 (configuration not stated)    f
25. Cc1cc2nc3c4ccccc4n(CCNCCN(C)C)c3nc2cc1C    t
26. O=c1[nH]c(=O)c2c(-c3cc4ccccc4oc3=O)ccnc2[nH]1    f
27. Cc1cc(=O)oc2cc(OCCOc3ccc(/C=C/C(=O)Nc4ccccc4N)cc3)ccc12    f
28. COc1cc(/C=C/C(=O)c2ccc(C)cc2)ccc1Oc1nc(Nc2ccc(F)cc2)nc(N(C)C)n1    t
29. CC1(C)CC[C@]2(C(=O)Nc3ccc(F)cc3)CC[C@]3(C)C(=CCC4[C@@]5(C)C[C@@H](O)[C@H](O)[C@@](C)(CO)C5CC[C@]43C)C2C1 (some centres not stated)    f
30. COc1cc(C2CC(c3cc(OC)c(OC)c(OC)c3)=NN2C(C)=O)ccc1OCc1ccccc1 (configuration not stated)    f
31. CCN1C(=O)/C(=N\N=C(/C)c2ccc3c(c2)Nc2ccccc2S3)c2cc(Cl)ccc21    f
32. CSc1ccc(NC(=O)c2ccc3nn(/C(C#N)=C/c4ccccn4)nc3c2)cc1    t

Where these numbers come from: PubChem BioAssay (NCI)
